MEASURED METRIC: melting point

{"CHEMICAL STRUCTURE": "Cc1c(-c2ccc(Br)cc2)nc2ccc(F)cc2c1C(=O)O", "melting point": "> 300 °C"}
{"CHEMICAL STRUCTURE": "Cc1c(-c2ccc(-c3ccccc3-c3ccccc3)cc2)nc2ccc(F)cc2c1C(=O)O", "melting point": "> 300 °C"}
{"CHEMICAL STRUCTURE": "COc1ccc(-c2ccc(-c3nc4ccc(F)cc4c(C(=O)O)c3C)cc2)c(OC)c1", "melting point": "> 300 °C"}
{"CHEMICAL STRUCTURE": "Cc1ccccc1-c1ccc(-c2nc3ccc(F)cc3c(C(=O)O)c2C)cc1", "melting point": "260 °C (dec.)"}
{"CHEMICAL STRUCTURE": "Cc1c(-c2ccc(Br)cc2)nc2ccc(F)cc2c1CO", "melting point": "222 to 240 °C"}

Fill blank: measured melting point of the compound "COc1ccccc1N1CCN(c2nc3ccc(F)cc3c(CO)c2C)CC1" is ____.
190 to 191 °C

Would you mind telling me what melting point value was observed for "Cc1c(-c2ccc(-c3ccccc3CO)cc2)nc2ccc(F)cc2c1C(=O)O" ?
258 to 260 °C

Value lookup for melting point; key = "Cc1c(-c2ccc(-c3ccccc3C=O)cc2)nc2ccc(F)cc2c1CO"
192 to 194 °C

Quick one: melting point for "CCOc1cccc(-c2ccc(-c3nc4ccc(F)cc4c(CO)c3C)cc2)c1" ?
199 to 200 °C

###

target: PDE10A (Homo sapiens, UniProt Q9Y233); construct: made in house; host or cells: Sf9 insect cells (baculovirus, pVL1393); assay: Activity of inhibiting PDE10A activity ([3H]cAMP decomposition inhibiting test); format: biochemical; details: Test compound concentration 1 μmol/L; substrate [3H]cAMP 0.2 μmol/L; read-out: [3H] cAMP decomposition inhibition rate (%)
Sequence (Q9Y233 340-1055): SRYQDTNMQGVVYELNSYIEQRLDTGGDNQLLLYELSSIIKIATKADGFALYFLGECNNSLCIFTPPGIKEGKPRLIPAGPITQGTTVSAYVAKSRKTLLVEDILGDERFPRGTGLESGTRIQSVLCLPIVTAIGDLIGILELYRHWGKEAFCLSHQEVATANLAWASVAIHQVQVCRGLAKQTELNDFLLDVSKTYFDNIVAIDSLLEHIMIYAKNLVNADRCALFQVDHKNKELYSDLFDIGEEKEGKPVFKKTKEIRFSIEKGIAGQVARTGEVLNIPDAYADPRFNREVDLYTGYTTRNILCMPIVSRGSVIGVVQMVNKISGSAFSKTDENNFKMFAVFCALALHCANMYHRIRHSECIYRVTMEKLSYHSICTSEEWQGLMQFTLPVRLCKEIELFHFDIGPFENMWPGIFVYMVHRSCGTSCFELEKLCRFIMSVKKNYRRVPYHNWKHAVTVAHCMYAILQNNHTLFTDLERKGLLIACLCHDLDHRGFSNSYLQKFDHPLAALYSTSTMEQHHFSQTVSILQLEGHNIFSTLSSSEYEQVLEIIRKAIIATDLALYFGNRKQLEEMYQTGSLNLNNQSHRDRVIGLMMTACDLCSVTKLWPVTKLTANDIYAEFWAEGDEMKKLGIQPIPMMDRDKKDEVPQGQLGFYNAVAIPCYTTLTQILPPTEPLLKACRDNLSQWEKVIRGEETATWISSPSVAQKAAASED
Where a name gives a salt, the structure may show the parent alone.
MEASURED METRIC: inhibition at 1 µM (%)

{"COMPOUND": "Cc1c(-c2ccc(-c3ccccc3CN3CCN(c4ccccc4)CC3)cc2)nc2ccc(F)cc2c1CO", "UNIT ABBREV": "%", "RECORDED RESULT": 90}
{"COMPOUND": "Cc1c(-c2ccc(-c3ccccc3CN3CCN(c4ccccc4)CC3)cc2)nc2ccc(F)cc2c1C(=O)O", "UNIT ABBREV": "%", "RECORDED RESULT": 99}
{"COMPOUND": "CCOc1cccc(-c2ccc(-c3nc4ccc(F)cc4c(CO)c3C)cc2)c1", "UNIT ABBREV": "%", "RECORDED RESULT": 83}
{"COMPOUND": "Cc1c(-c2ccc(-c3ccccc3CN3CCOCC3)cc2)nc2ccc(F)cc2c1CO [Compound 12, dihydrochloride]", "UNIT ABBREV": "%", "RECORDED RESULT": 96}
{"COMPOUND": "COc1ccccc1-c1ccc(-c2nc3ccc(F)cc3c(CO)c2C)cc1", "UNIT ABBREV": "%", "RECORDED RESULT": 97}
{"COMPOUND": "Cc1c(-c2ccc(-c3ccccc3CN3CCOCC3)cc2)nc2ccc(F)cc2c1C(=O)O", "UNIT ABBREV": "%", "RECORDED RESULT": 98}
{"COMPOUND": "Cc1c(-c2ccc(-c3ccccc3CO)cc2)nc2ccc(F)cc2c1C(=O)O", "UNIT ABBREV": "%", "RECORDED RESULT": 90}
{"COMPOUND": "Cc1c(-c2ccc(-c3ccccc3-c3ccccc3)cc2)nc2ccc(F)cc2c1C#N", "UNIT ABBREV": "%", "RECORDED RESULT": 70}
